Hey, just so you know, these numbers are from ChEMBL document CHEMBL1201862.

System: PC-3
test.description: NCI tumour cell line growth inhibition, 48 h
Activity calls are given as the source filed them. No stated cut-off is given here; in the data, active = GI50 up to about 1.1 µM and inactive = higher.
Result category, one only: active, inactive

>>> class_name("COc1cccc(C2CC(=O)c3cc(N4CCCC4)ccc3N2)c1 (stereo not given)")
"active"
>>> class_name("Cc1nn(C)c2nc3ccc(Cl)cc3c(-c3ccccc3)c12")
"inactive"

// query Called result for Cc1nnc(N)nc1/C=C/c1c(O)ccc2ccccc12
// result inactive

// query Called result for CCN1CCC(O)(c2ccc(Oc3ccccc3)cc2)C(C(=O)c2ccc(Oc3ccccc3)cc2)C1 (stereo not given)
// result inactive

// query Called result for COc1ccc(C2SCC(=O)N2c2ccc(-n3c(-c4ccccc4)nc4ccccc4c3=O)cc2)cc1 (stereo not given)
// result inactive

----------
Test system: SNB-75
test.description: NCI tumour cell line growth inhibition, 48 h
The source made the active and inactive calls. Cut-off read from the data, not from the text of the source: active = GI50 up to about 1.1 µM and inactive = higher.
Result category, one only: active, inactive

>>> class_name("CNC(=O)OCc1nc(SSC(C)(C)C)n(C)c1COC(=O)NC")
"inactive"

// query Called result for COc1cc(Nc2cnc3cc(C(F)(F)F)ccc3n2)cc(OC)c1OC
// result inactive

// query Called result for N#C/C(=C\c1cccc(O)c1O)C(N)=O
// result inactive

// query Called result for CCOC(=O)CC1Nc2ccccc2C12CCc1c([nH]c3ccccc13)C2C(=O)OCC (centres undefined)
// result active

// query Called result for COc1cc(C2c3cc4c(cc3[C@@H](Nc3cccc(C(C)=O)c3)C3COC(=O)[C@H]23)OCO4)cc(OC)c1O (some centres undefined)
// result active

// query Called result for C[N+](C)(C)CC1CCCC/C1=N\OC(=O)c1ccccc1 (centres undefined)
// result inactive

// query Called result for CCOc1cccc2ccc[n+](CC)c12
// result inactive

// query Called result for O=C(c1cc(=O)c2ccc(O)cc2o1)c1ccc(Cl)cc1Cl
// result inactive

// query Called result for COc1ccc(Nc2nn3c(=O)c4c(C)c(C)sc4nc3s2)cc1
// result inactive

----------
Test system: SNB-19
test.description: NCI tumour cell line growth inhibition, 48 h
Activity calls are given as the source filed them. Cut-off read from the data, not from the text of the source: active = GI50 up to about 1.1 µM and inactive = higher.
Result category, one only: 1 = active, 0 = inactive

>>> class_name("CCOC(=O)C(N)CSC(=O)NC (stereo not given)")
0
>>> class_name("CCCc1cn2c(/C=N/NC(=N)N)c(-c3cc([N+](=O)[O-])c(Cl)cc3Cl)nc2s1")
0
>>> class_name("C/C=C1/CC(C(=O)OC)N(C(=O)OCc2ccccc2)C1=S (stereo not given)")
0
>>> class_name("CSc1ccc(/C=C2\\N=C(c3ccccc3)N(c3nc4cc(Cl)c(F)cc4s3)C2=O)cc1")
0

Switching to the query record.
// query Called result for COc1cc([C@@H]2c3cc4c(cc3[C@@H](NCCNCCO)[C@H]3COC(=O)[C@H]23)OCO4)cc(OC)c1O
// result 1

----------
A collection of compounds and their measured GI50
Test system: SK-MEL-2
test.description: NCI tumour cell line growth inhibition, 48 h
Activity calls are given as the source filed them. Rule as the data show it: active = GI50 up to about 1.1 µM and inactive = higher.

Record excerpt, results attached:
>>> reading("O=C1C(C(O)(C(F)(F)F)C(F)(F)F)CCC1C(O)(C(F)(F)F)C(F)(F)F (stereo unspecified)")
"0.522 µM (active)"
>>> reading("COc1ccc(Nc2nn3c(=O)c4c(C)c(C)sc4nc3s2)cc1")
"35.6 µM (inactive)"
>>> reading("COC(OC)c1cccc2c1C1(O)CCC3(CC21)OCCCCO3 (stereo unspecified)")
"> 100 µM (inactive)"
>>> reading("CCOC(=O)c1nc2ccccc2nc1Nc1ccc(OC)c(OC)c1")
"> 100 µM (inactive)"
>>> reading("COc1ccc(C2SC(=N)Nc3c2c(C)nn3C(=O)c2ccc(Cl)cc2)cc1 (stereo unspecified)")
"> 10 µM (inactive)"
>>> reading("CC(NC(=O)c1ccc(Cl)c(Cl)c1)c1ccc(-c2ccccc2)cc1 (stereo unspecified)")
"> 100 µM (inactive)"
>>> reading("COCN1C(N)=C(C(=O)OC(C)(C)C)C2=CC(=O)C=CC21C (stereo unspecified)")
"17.3 µM (inactive)"
>>> reading("COc1ccc(/C=C(\\NC(=O)c2ccccc2)c2nc3ccccc3[nH]2)cc1")
"21.1 µM (inactive)"
>>> reading("COc1ccc(C=O)c(N(C)C(=O)C(C)(C)C)c1")
"> 100 µM (inactive)"
>>> reading("Cc1nc2ccc(Br)cc2c(=O)n1-c1nnc(C(C)(C)C)s1")
"> 10 µM (inactive)"

// query API: value(readout=GI50, system=SK-MEL-2) for record COc1ccc(C(c2ccc3c(c2)OCO3)N2C(=O)CCC2C(=O)O)cc1 (stereo unspecified)
// result > 100 µM (inactive)

----------
Tested on: RPMI-8226
test.description: NCI tumour cell line growth inhibition, 48 h
Calls of active or inactive are those of the source. No stated cut-off is given here; in the data, active = GI50 up to about 1.1 µM and inactive = higher.
Result category, one only: 1 (yes) (active), 0 (no) (inactive)

As a guide, the following entries are already answered.
>>> class_name("CCOn1c(C2(CC3CCN(C(=O)c4ccccc4)CC3)OCCO2)cc2ccccc21")
"0 (no)"
>>> class_name("CCOC(=O)c1nc2ccccc2nc1Nc1ccc(OC)c(OC)c1")
"0 (no)"
>>> class_name("CC1CCC(O)C(C(O)CC2CC(=O)N(C)C(=O)C2)C1 (configuration not stated)")
"0 (no)"
>>> class_name("COC(=O)c1ccc(NCC2=C(Br)C(=O)C=CC2=O)cc1Cl")
"0 (no)"

// query Called result for O=C1N(c2ccccc2)C2(c3ccccc3)CC3CCCC13S2 (configuration not stated)
// result 0 (no)

// query Called result for CC(C)(C)C(=O)CC(=O)C(C)(C)C.CC(C)(C)C(=O)CC(=O)C(C)(C)C.[SiH4]
// result 1 (yes)

// query Called result for CC1OC(n2cc(Cl)c(=O)[nH]c2=O)C=C(OC(=O)c2ccccc2)C1=O (configuration not stated)
// result 0 (no)

// query Called result for CC(C)[C@H]1CO[C@]2(C)[C@@H]3CN(Cc4ccccc4)C[C@@H]3C(=O)N12
// result 0 (no)

// query Called result for O=C(CCc1ccc(O)c(O)c1)NCCc1cc(O)c(O)c(O)c1
// result 0 (no)

// query Called result for Cc1nc(C)c(C(=O)NNC(N)=S)cc1C(=O)NNC(N)=S
// result 0 (no)

// query Called result for CCN(CC)CCN1C(=O)c2c(c(-c3ccccc3)c3ccccc3c2-c2ccccc2)C1=O
// result 0 (no)

// query Called result for c1cnn(C23C4C5C6C4C2C6C53)c1 (configuration not stated)
// result 0 (no)

// query Called result for CC(C)=CCCC1(C)C=Cc2c(ccc3c2[nH]c2cc(O)c(C)cc23)O1 (configuration not stated)
// result 0 (no)

// query Called result for CC(=O)OC1(C)N=NC2(CCCCC2)O1 (configuration not stated)
// result 0 (no)

// query Called result for COc1ccc(Sc2ccccc2N)cc1
// result 0 (no)

// query Called result for C(/Cc1ccc2c(c1)OCO2)=N\N=C1NCCCCN1
// result 0 (no)

// query Called result for Cc1cc2c(=O)cc(-c3cccs3)oc2c(C(=O)O)c1C
// result 0 (no)

// query Called result for Cc1cc(S(=O)(=O)Nc2nnc3c4ccccc4cnn23)c(S)cc1Cl
// result 0 (no)

----------
System: SK-MEL-5
test.description: NCI tumour cell line growth inhibition, 48 h
The source made the active and inactive calls. No stated cut-off is given here; in the data, active = GI50 up to about 1.1 µM and inactive = higher.
Result category, one only: active, inactive

As a guide, the following entries are already answered.
>>> class_name("NS(=O)(=O)c1ccc(NC(=O)N/N=C/c2ccccc2O)cc1")
"inactive"
>>> class_name("COc1cccc2c1C(=O)c1c(O)c3c(c(O)c1C2=O)C[C@@](O)(/C(C)=N\\O)C[C@@H]3OC1CC(N)C(O)C(C)O1 (stereo partly drawn)")
"active"
>>> class_name("COc1cc(C2c3cc4c(cc3[C@@H](Nc3ccc(N5CCOCC5)cc3)C3COC(=O)[C@H]23)OCO4)cc(OC)c1O (stereo partly drawn)")
"active"
>>> class_name("CC(C)(C)CC(C)(C)c1cc2c(O)c(c1)Cc1cc(C(C)(C)CC(C)(C)C)cc(c1O)Cc1cc(C(C)(C)CC(C)(C)C)cc(c1O)Cc1cc(C(C)(C)CC(C)(C)C)cc(c1O)Cc1cc(C(C)(C)CC(C)(C)C)cc(c1O)Cc1cc(C(C)(C)CC(C)(C)C)cc(c1O)Cc1cc(C(C)(C)CC(C)(C)C)cc(c1O)Cc1cc(C(C)(C)CC(C)(C)C)cc(c1O)C2")
"inactive"
>>> class_name("CNC(=O)N(CCC#N)CCN(CCN(C(=O)NC)c1ccccc1)C(=O)NC")
"inactive"
>>> class_name("CCOC(=O)C1C(c2ccc(Cl)cc2Cl)NC(c2ccc(C)cc2)C(C(=O)OC)S1(=O)=O (stereo not drawn)")
"inactive"
>>> class_name("CN(C)CCNC(=O)c1ccc2nc3c(nc2c1)C(=O)c1ccccc1-3")
"inactive"
>>> class_name("COC(=O)c1onc(C2OC(C)(C)OC2C(O)COC(c2ccccc2)(c2ccccc2)c2ccccc2)c1C(=O)OC (stereo not drawn)")
"inactive"

Switching to the query record.
// query Called result for Cc1cn(C2CC(n3cncn3)C(C(C)O)O2)c(=O)[nH]c1=O (stereo not drawn)
// result inactive
